Known Ratio IC50 of a selection of compounds
Organism: Homo sapiens
Assay summary: Selectivity index, ratio of IC50 for human recombinant HDAC1 to IC50 for human recombinant HDAC6

Molecular string	Limit qualifier	Ratio IC50
Cc1nc2cccc(/C=C/C(=O)NO)c2c(=O)n1-c1ccccc1	=	10
Cc1nc2cc(/C=C/C(=O)NO)ccc2c(=O)n1CCc1c[nH]c2ccccc12	=	51
CCc1nc2cc(/C=C/C(=O)NO)c(F)cc2c(=O)n1CCc1ccccc1	=	214
Cc1nc2c(/C=C/C(=O)NO)cccc2c(=O)n1-c1ccccc1	=	70
CCc1nc2cc(Cl)c(/C=C/C(=O)NO)cc2c(=O)n1CCc1ccccc1	>	13
Cc1nc2ccc(/C=C/C(=O)NO)cc2c(=O)n1-c1ccccc1	=	65
